Listing of IC50 toward ASK1 (Homo sapiens (Human), UniProt Q99683), each taken from a published source.

[[record]]
samplesmiles = "CC(C)CS(=O)(=O)N1CCc2cc(F)c(C(=O)Nc3cccc(-c4nncn4C(C)C)n3)cc2C1"
measuredproperty = "IC50"
measured = "1 to 10 nM"


INPUT: Name the reported IC50 value associated with the compound `CC(C)n1cnnc1-c1cccc(N2COc3ccc(-n4cnc(C5CC5)c4)cc3C2=O)n1`
OUTPUT: 4 nM

INPUT: Also, `CC(C)c1nnnn1-c1cccc(N2Cc3ccc(-c4cccnc4)cc3C2=O)n1` please.
OUTPUT: 10 to 100 nM

INPUT: Another: `COCCC(=O)N1CCc2cc(F)c(C(=O)Nc3cccc(-c4nncn4C(C)C)n3)cc2C1`
OUTPUT: 1 to 10 nM

---

Recorded pIC50 for molecules tested on ASK1 (Homo sapiens (Human)), drawn from a number of studies.
pIC50: −log10 of the molar value.

INPUT: // pIC50 lookup, key: `O=C1c2cc(-c3cccnc3)c(F)cc2CN1c1cccc(-c2nncn2C2CC2)n1`
OUTPUT: > 6.70

INPUT: Now give it for `CN(C)C(=O)c1ccc2c(c1)C(=O)N(c1cccc(-c3nncn3C3CC3)n1)C2` too.
OUTPUT: 6.00 to 6.70

INPUT: `CC(C)Oc1cnc(C(=O)Nc2cccc3c2OC[C@H](C)n2nnnc2-3)cc1-n1cnc(C2CC2)c1` , same question.
OUTPUT: 8.28

INPUT: What about `COc1cc2c(s1)C(=O)N(c1cccc(-c3nncn3C3CC3)n1)C2` ?
OUTPUT: > 6.00

INPUT: And the next one, Cc1cc(F)c(C(=O)Nc2cccc(-c3nncn3C(C)C)n2)cc1C1CC1C(=O)O (stereo not shown) ?
OUTPUT: < 8.00

---

pIC50: −log10 of the molar value.
Published pIC50 for ASK1 (Homo sapiens (Human)), assembled from different documents, is shown next.

See these solved cases before continuing.
[[record]]
samplesmiles = "CC(C)n1nnnc1-c1cccc(N2Cc3ccc(-c4cncc(C5CC5)c4)cc3C2=O)n1"
measuredproperty = "pIC50"
measured = "7.00 to 8.00"

[[record]]
samplesmiles = "O=C(Nc1cccc2c1OCCn1nnnc1-2)c1cc(-n2cnc(C3CC3)c2)c(N2CCOCC2)cn1"
measuredproperty = "pIC50"
measured = 8.22

[[record]]
samplesmiles = "CC(C)NC(=O)N1CCc2cnc(C(=O)Nc3cccc(-c4nnnn4[C@H](C)CO)n3)cc2C1"
measuredproperty = "pIC50"
measured = "8.00 to 9.00"

[[record]]
samplesmiles = "CC(=O)OC[C@@H](C)n1nnnc1-c1cccc(NC(=O)c2cc3c(cc2F)CCN(C(=O)N2CCCC2)C3)n1"
measuredproperty = "pIC50"
measured = "< 6.00"

[[record]]
samplesmiles = "Cc1cc(F)c(C(=O)Nc2cccc(-n3nnnc3C(C)C)n2)cc1-c1cnn(C(F)(F)F)c1"
measuredproperty = "pIC50"
measured = "6.00 to 7.00"


Moving on to the next compound.
INPUT: Record lookup: for ASK1 (Homo sapiens (Human)), what pIC50 belongs to `CCNC(=O)N1CCc2cc(F)c(C(=O)Nc3cccc(-c4nnnn4C(C)C)n3)cc2C1` ?
OUTPUT: 8.00 to 9.00

---

pIC50: −log10 of the molar value.
Multiple publications report pIC50 for ASK1 (Homo sapiens (Human), UniProt Q99683); what follows is a combined list.

Below, each entry is followed by its recorded pIC50 result.
[[record]]
samplesmiles = "O=C(Nc1cccc2c1OCCn1nnnc1-2)c1cc(-n2cnc(C3CC3)c2)c(N2CC[C@H](O)C2)cn1"
measuredproperty = "pIC50"
measured = 8.46

[[record]]
samplesmiles = "CC(C)n1cnnc1-c1cccc(NC(=O)c2cc(-c3ccccc3)c[nH]2)n1"
measuredproperty = "pIC50"
measured = 8.19

[[record]]
samplesmiles = "CC(C)n1cnnc1-c1cccc(NC(=O)c2cc3sc(C4CCC4)nc3cn2)n1"
measuredproperty = "pIC50"
measured = "7.00 to 8.00"

[[record]]
samplesmiles = "CC(C)n1cnnc1-c1cccc(NC(=O)c2ccc3nc(N4CCCCC4)sc3c2)n1"
measuredproperty = "pIC50"
measured = "7.00 to 8.00"

[[record]]
samplesmiles = "O=C(Nc1cccc2c1OCCn1nnnc1-2)c1cc(-n2cnc(C3CC3)c2)c(N2CCC2)cn1"
measuredproperty = "pIC50"
measured = 8.49

[[record]]
samplesmiles = "C[C@H](CO)n1nnnc1-c1cccc(NC(=O)c2cc3c(cn2)CN(C(=O)OCc2ccccc2)C3)n1"
measuredproperty = "pIC50"
measured = "8.00 to 9.00"

[[record]]
samplesmiles = "CC(C)n1cnnc1-c1cccc(NC(=O)c2cc3c(cc2F)CCN(S(=O)(=O)CCC(F)(F)F)C3)n1"
measuredproperty = "pIC50"
measured = "8.00 to 9.00"


Turning to the following compound.
INPUT: # query: pIC50 of entry `Cc1cnc(C(=O)Nc2cccc(-c3nnnn3[C@H](C)CO)n2)cc1-c1cnn(C(F)(F)F)c1`
OUTPUT: 8.00 to 9.00
